Source listed as patent US4670038A.

Recorded Unhydrolyzed Urea, % Well-Mixed 6-Day, one value per entry.
tested on: soil urease; assay: Urea remaining unhydrolyzed in Hastings silt loam soil, well-mixed system; type: biochemical; settings: Table V; 41 mg inhibitor, 410 mg urea, 100 g soil; three replications; 25° C.; 6 days
reported metric: Unhydrolyzed Urea, % Well-Mixed 6-Day

In [3]: df
Out[3]:
                                   compound                        reported_metric  result
0  NP1(N)=NP(N)(Oc2ccccc2)=NP(N)(Oc2ccccc2)=N1 (stereo not shown) [P3 N3 (NH2)4 (OC6 H5)2]  Unhydrolyzed Urea, % Well-Mixed 6-Day     36%
1  NP1(N)=NP(N)(N)=NP(N)(N)=N1 [P3 N3 (NH2)6]  Unhydrolyzed Urea, % Well-Mixed 6-Day      9%
2  NP1(Oc2ccccc2)=NP(N)(Oc2ccccc2)=NP(N)(Oc2ccccc2)=N1 (stereo not shown) [P3 N3 (NH2)3 (OC6 H5)3]  Unhydrolyzed Urea, % Well-Mixed 6-Day      0%
3  NP1(N)=NP(N)(N)=NP(N)(Oc2ccccc2)=N1 (stereo not shown) [P3 N3 (NH2)5 (OC6 H5)]  Unhydrolyzed Urea, % Well-Mixed 6-Day     44%
